target: PTP-β (Homo sapiens, UniProt P23467); construct: purchased Upstate Biotechnology; assay: PTPase assay with pNPP as substrate; format: biochemical; details: V(+IV) compounds
Sequence (P23467 23-1997): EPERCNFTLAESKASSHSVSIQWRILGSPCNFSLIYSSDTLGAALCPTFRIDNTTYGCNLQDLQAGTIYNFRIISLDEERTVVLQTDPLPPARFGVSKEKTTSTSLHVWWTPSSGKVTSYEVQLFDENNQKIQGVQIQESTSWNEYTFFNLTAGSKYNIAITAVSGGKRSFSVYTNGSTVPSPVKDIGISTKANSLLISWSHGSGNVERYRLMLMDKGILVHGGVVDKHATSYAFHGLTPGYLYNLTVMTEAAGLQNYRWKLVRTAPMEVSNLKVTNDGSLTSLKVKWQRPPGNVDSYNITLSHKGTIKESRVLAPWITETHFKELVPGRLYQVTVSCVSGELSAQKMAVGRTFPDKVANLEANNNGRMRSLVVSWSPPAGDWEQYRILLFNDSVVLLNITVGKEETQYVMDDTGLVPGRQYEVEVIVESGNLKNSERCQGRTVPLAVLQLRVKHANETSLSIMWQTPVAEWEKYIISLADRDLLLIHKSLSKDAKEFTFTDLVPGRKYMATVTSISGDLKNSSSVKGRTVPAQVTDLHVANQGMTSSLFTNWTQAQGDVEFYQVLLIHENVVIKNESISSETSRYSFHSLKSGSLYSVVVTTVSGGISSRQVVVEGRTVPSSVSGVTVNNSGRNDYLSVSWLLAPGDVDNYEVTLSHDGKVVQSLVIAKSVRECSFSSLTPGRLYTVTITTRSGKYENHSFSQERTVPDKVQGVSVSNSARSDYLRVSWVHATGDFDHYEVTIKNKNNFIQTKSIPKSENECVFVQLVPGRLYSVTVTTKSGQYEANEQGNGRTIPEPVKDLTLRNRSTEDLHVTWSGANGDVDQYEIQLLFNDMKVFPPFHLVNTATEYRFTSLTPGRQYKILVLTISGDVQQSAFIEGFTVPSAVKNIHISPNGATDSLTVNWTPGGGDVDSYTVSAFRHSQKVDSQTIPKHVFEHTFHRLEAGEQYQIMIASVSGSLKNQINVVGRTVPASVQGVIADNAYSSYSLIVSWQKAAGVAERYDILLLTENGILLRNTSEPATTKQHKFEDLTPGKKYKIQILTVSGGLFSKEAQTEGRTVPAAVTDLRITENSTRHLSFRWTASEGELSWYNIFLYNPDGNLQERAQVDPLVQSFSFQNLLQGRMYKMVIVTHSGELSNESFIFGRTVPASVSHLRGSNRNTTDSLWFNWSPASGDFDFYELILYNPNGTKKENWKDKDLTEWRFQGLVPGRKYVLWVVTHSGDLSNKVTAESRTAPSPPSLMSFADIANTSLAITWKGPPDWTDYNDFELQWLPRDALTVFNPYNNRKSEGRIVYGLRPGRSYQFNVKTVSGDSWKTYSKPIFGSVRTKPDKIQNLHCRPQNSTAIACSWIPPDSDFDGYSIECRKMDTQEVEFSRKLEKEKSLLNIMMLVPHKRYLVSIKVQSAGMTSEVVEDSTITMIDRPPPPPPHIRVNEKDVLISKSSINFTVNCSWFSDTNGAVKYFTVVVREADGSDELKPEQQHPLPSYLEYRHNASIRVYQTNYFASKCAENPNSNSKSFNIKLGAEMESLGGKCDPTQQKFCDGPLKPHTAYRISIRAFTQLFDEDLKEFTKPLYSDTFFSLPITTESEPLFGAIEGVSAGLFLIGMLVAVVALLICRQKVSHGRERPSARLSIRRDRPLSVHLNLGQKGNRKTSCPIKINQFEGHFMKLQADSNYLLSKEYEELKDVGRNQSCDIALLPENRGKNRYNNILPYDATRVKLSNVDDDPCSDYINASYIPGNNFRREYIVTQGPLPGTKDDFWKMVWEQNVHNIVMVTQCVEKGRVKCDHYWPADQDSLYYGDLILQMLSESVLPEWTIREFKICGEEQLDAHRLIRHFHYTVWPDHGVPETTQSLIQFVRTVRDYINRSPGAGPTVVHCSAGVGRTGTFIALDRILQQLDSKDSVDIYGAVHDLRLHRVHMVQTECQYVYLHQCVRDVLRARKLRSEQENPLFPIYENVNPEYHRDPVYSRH
Measured IC50 accompanies every entry in the list below.
Number plus unit, in that order.

Here is how some molecules turned out for IC50.
- entry-smiles: "O=C([O][V](=[O])[O]C(=O)c1ccc2ccccc2n1)c1ccc2ccccc2n1"
  target-under-test: "PTP-β (Homo sapiens, UniProt P23467)"
  value-measured: "212 µM"
- entry-smiles: "O=C([O-])c1ccccn1.O=C([O-])c1ccccn1.[O]=[V+2]"
  target-under-test: "PTP-β (Homo sapiens, UniProt P23467)"
  value-measured: "589 µM"

For "O=C([O-])c1ncccc1O.O=C([O-])c1ncccc1O.[O]=[V+2]" , write its IC50.
57.5 µM

----------
molecular target: SopB (Salmonella typhimurium, UniProt O30916); assay: biochemical; type: biochemical
Sequence (O30916 whole entry): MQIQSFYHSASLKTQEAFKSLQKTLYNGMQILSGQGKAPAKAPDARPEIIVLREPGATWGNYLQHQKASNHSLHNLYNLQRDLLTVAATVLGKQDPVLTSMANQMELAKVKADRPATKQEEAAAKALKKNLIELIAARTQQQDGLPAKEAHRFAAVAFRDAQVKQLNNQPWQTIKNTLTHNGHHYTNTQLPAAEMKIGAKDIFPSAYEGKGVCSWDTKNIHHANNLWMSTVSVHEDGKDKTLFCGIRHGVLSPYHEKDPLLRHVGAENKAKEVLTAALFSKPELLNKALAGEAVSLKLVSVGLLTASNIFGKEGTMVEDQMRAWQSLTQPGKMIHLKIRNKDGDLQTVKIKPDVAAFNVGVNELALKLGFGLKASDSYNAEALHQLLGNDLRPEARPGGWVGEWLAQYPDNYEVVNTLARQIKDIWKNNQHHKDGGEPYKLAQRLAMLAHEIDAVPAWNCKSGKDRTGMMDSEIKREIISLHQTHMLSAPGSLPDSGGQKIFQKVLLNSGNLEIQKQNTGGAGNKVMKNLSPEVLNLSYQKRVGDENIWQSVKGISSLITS
parameter: pIC50
Answer as the number alone; pIC50 is minus log10 of concentration in mol/L.

State the measured pIC50 (SopB (Salmonella typhimurium, UniProt O30916)) of "O=C([O][V](=[O])[O]C(=O)c1ccc2ccccc2n1)c1ccc2ccccc2n1"
5.71

----------
target: PTP-β (Homo sapiens, UniProt P23467); construct: purchased Upstate Biotechnology; assay: PTPase assay with pNPP as substrate; format: biochemical; settings: V(+V) compounds
parameter: pIC50
Please treat pIC50 as minus the base-10 logarithm of the molar concentration.

Note down pIC50 recorded for O=C([O-])c1nccc2ccccc12.[K+].[K+].[O-][O-].[O-][O-].[O]=[V+3] [pV(isoqu)]
3.46

----------
target: PTEN (Mus musculus); construct: endogenous in cells; host or cells: NIH3T3; experiment: PKB assay: dose dependence of PTEN inhibition in insulin-stimulated NIH3T3 cells (pSer473 Western blot); format: cell-based; conditions: NIH3T3, 5 min compound then 0.5 μg/ml insulin 15 min; read-out: IC50 (in vivo PTEN inhibition, densitometry of pSer473 PKB)
Sequence (O08586 whole entry): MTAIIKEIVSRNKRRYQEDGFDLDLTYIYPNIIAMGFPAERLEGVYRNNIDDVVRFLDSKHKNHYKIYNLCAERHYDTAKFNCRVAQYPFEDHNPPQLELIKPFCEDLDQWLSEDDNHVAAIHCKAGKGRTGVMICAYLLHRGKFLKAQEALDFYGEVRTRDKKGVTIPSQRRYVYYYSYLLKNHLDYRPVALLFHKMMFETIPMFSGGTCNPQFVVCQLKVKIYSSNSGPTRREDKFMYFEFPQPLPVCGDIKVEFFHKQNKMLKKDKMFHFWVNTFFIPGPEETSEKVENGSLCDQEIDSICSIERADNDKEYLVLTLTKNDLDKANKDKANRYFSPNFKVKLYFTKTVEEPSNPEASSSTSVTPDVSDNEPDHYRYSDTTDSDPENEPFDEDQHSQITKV
parameter: IC50 (µM)
Number only, in µM; omit the unit.

Report value only: IC50, PTEN (Mus musculus), "O=C([O-])c1ccc(O)cn1.[K+].[K+].[O-2].[O-][O-].[O-][O-].[V+5]"
0.096

----------
molecular target: PTP-β (Homo sapiens, UniProt P23467); construct: purchased Upstate Biotechnology; test: PTPase assay with pNPP as substrate; assay type: biochemical; conditions: aromatic bpVs, pNPP substrate
parameter: pIC50
Kindly note that pIC50 refers to -log10 of the concentration in mol/L and answer with the value alone.

Give pIC50 for the following molecule: "[K+].[O-][O-].[O-][O-].[O]=[V+3].c1ccc(-c2ccccn2)nc1"
7.22

----------
A collection of compounds and their measured pIC50
biological target: MTM (Homo sapiens); assay: MTM IC50 (inositol phosphatase inhibition); type: biochemical; details: Compound(+IV)
Sequence (Q13496 whole entry): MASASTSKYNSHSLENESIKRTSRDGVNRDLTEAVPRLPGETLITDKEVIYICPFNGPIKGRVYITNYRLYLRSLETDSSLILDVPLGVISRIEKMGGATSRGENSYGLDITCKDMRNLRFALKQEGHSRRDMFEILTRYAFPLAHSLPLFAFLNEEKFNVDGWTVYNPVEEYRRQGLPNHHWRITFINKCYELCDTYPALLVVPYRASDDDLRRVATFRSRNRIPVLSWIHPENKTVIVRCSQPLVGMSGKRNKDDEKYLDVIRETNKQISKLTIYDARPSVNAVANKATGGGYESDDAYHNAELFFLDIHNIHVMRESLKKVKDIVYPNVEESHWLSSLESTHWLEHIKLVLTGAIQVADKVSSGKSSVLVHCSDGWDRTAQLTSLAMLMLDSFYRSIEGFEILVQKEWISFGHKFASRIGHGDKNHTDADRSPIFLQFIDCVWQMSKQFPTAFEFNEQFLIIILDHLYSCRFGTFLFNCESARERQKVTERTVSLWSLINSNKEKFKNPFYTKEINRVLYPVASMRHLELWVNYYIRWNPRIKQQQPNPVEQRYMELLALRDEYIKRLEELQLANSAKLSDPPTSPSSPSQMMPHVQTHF
In textbook form, pIC50 equals minus log to base ten of the concentration in mol/L.

Please review the entries below; each comes with its answer.
- entry-smiles: "O=C([O-])c1ccccn1.O=C([O-])c1ccccn1.[O]=[V+2]"
  pIC50: 5.20
- entry-smiles: "O=C([O][V](=[O])[O]C(=O)c1ccc2ccccc2n1)c1ccc2ccccc2n1"
  pIC50: 5.03

# evaluate next
Please indicate pIC50 recorded for "O=C([O-])c1ncccc1O.O=C([O-])c1ncccc1O.[O]=[V+2]"
5.39
